Cited source for all entries: patent US7300664B1

Experiment: Clinical use: twice-daily vaginal tablets, blood samples on days 14 and 30 (Example 4)
Assay type: in vivo, women
Details: female, human, serum, other: vaginal, 100 mg twice daily; Day 30, 100 mg tablet twice daily, 30 subjects, fasting morning sample; read-out: Blood Progesterone levels
Property Name: concentration at 30 day (nM)
Report the value in nM with no unit label.

concentration at 30 day recorded for this compound, CC(=O)[C@H]1CC[C@H]2[C@@H]3CCC4=CC(=O)CC[C@]4(C)[C@H]3CC[C@]12C [Progesterone, progesterone] , is 21.4

====

Assay: Clinical use: twice-daily vaginal tablets, blood samples on days 14 and 30 (Example 4)
Assay type: in vivo, women
Conditions: female, human, serum, other: vaginal, 50 mg twice daily; Day 14, 50 mg tablet twice daily, 20 subjects, fasting morning sample; read-out: Blood Progesterone levels
Property Name: concentration at 14 day (nM)
Report the value in nM with no unit label.

concentration at 14 day recorded for this molecule, CC(=O)[C@H]1CC[C@H]2[C@@H]3CCC4=CC(=O)CC[C@]4(C)[C@H]3CC[C@]12C , is 17.5

====

Test: Single-dose pharmacokinetics of progesterone vaginal tablets in post-menopausal women (Example 4, day 0)
Format: in vivo
Conditions: single vaginal tablet, 100 mg progesterone, 30 subjects, mean; P = 0.0004; read-out: Cmax (maximal serum concentration)
Property Name: Cmax (nM)
Report the value in nM with no unit label.

Cmax recorded for this molecule, CC(=O)[C@H]1CC[C@H]2[C@@H]3CCC4=CC(=O)CC[C@]4(C)[C@H]3CC[C@]12C , is 31.6

====

Experiment: Single-dose pharmacokinetics of progesterone vaginal tablets in post-menopausal women (Example 4, day 0)
Type: in vivo
Conditions: single vaginal tablet, 50 mg progesterone, 20 subjects, mean; read-out: Cmax (maximal serum concentration)
Property Name: Cmax (µM)
Report the value in µM with no unit label.

Cmax recorded for this compound, CC(=O)[C@H]1CC[C@H]2[C@@H]3CCC4=CC(=O)CC[C@]4(C)[C@H]3CC[C@]12C [Progesterone, progesterone] , is 0.0204

====

Assay: Clinical use: twice-daily vaginal tablets, blood samples on days 14 and 30 (Example 4)
Assay type: in vivo, women
Details: female, human, serum, other: vaginal, 50 mg twice daily; Day 30, 50 mg tablet twice daily, 20 subjects, fasting morning sample; read-out: Blood Progesterone levels
Procedure: The pharmacokinetics and clinical use of tablets prepared in accordance with the invention were evaluated as follows: 50 healthy, post-menopausal women with intact uteri, 39 of whom had suffered premature menopause and 11 who were truly postmenopausal, all of whom were undergoing hormone replacement therapy (HRT), submitted blood samples for determination of baseline profiles of hormones (progesterone and other hormones) and other biochemicals (bilirubin, cholesterol, etc.). […]
Property Name: concentration at 30 day
The reply should read as a number followed by its unit.

concentration at 30 day recorded for this molecule, CC(=O)[C@H]1CC[C@H]2[C@@H]3CCC4=CC(=O)CC[C@]4(C)[C@H]3CC[C@]12C , is 17.4 nM
